# System: MS2 coat protein
# assayComment: apparent KD of MS2 coat protein; designed switch direction (-1 OFF switch, 1 ON switch): -1; higher = weaker reporter binding
# appliedConditions: input ligand: none
Recorded apparent KD of MS2 coat protein by entry
Your answer is read as nM, so omit the unit and give the number.

{"columns": ["macromoleculeSequence", "target", "dataValue"],
 "data": [
  ["CCAGCGUAUGUGAGGAUAUGCUGGUCCUUGGAUCAGCAGAAGGCACAUGAGGAUCACCCAUGUGGAAACGUUGA [Mod of JL 2 - Jieux - Brourd's mod of Exclusion 4] (Eterna round: R97, puzzle: Brourd's mod of Exclusion 4)", "MS2 coat protein", 19.9],
  ["AAGACAAUUCUCUAGUGCAACAUGAGGAUCACCCAUGUCAUAGAAGCUUUUUGCUCGUGUUAAGUGACUCAAGAGAG [Eternabot (Original) Solution 41] (Eterna round: R97, puzzle: Sensor, turn-off variant 1)", "MS2 coat protein", 64.2]
]}

## Input So what does the record say about apparent KD of MS2 coat protein for ACAUGAGGAUCACCCAUGUCUGGCUGGUCCGUCUCGGCUGUCGAGGAUAUAGCUCGGUGUCCGCGCUAGAAGGCGGGAGCUGGC [Aenatbe mod 81] (Eterna round: R96, puzzle: Exclusion NG 3) ?
## Output 81

## Input Then this sequence: CGCCUACAUGAGGAUCACCCAUGUGAGGAUAUCCUGCGAGGAUCAAAAGAUCCUCGUGGGAGAAGGCGCUUGGA [Omei Ex1 B7] (Eterna round: R97, puzzle: Exclusion 1)
## Output 19.4
